Readings of shrunken log2 fold change for the listed sequences
- System: Escherichia coli TOP10;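 note: peptides expressed intracellularly from a pBAD plasmid library in pooled LB shake-flask culture, induced with 0.3% L-arabinose, DNA abundance read by NGS, three biological replicates, DESeq2 with apeglm shrinkage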
- Run Description: shrunken log2 fold change of peptide-encoding DNA abundance (4.5 h post-induction vs induction); higher = less antimicrobial activity (less host growth inhibition)
- Reported Conditions: time post-induction: 4.5 h; library: site-saturation at positions 5, 18, 19, 20
Give the value as a plain number.

- Sequence String: "RRIRCRPPRLPRPRPRPMIYPRP"
  Tgt: "Escherichia coli TOP10"
  shrunken log2 fold change: -0.144
- Sequence String: "RRIRTRPPRLPRPRPRPKDSPRP"
  Tgt: "Escherichia coli TOP10"
  shrunken log2 fold change: 0.0052
- Sequence String: "RRIRGRPPRLPRPRPRPHFHPRP"
  Tgt: "Escherichia coli TOP10"
  shrunken log2 fold change: 0.603
- Sequence String: "RRIRCRPPRLPRPRPRPEMTPRP"
  Tgt: "Escherichia coli TOP10"
  shrunken log2 fold change: 0.517

Inquiry: What does the data say about its shrunken log2 fold change? Entry: RRIRKRPPRLPRPRPRPEGEPRP
Reply text: -0.0225

Inquiry: What does the data say about its shrunken log2 fold change? Entry: RRIRGRPPRLPRPRPRPIQRPRP
Reply text: 0.0933

Inquiry: What does the data say about its shrunken log2 fold change? Entry: RRIRFRPPRLPRPRPRPLNVPRP
Reply text: -0.345

Inquiry: What does the data say about its shrunken log2 fold change? Entry: RRIRSRPPRLPRPRPRPQEAPRP
Reply text: -0.0452
